ASSAYED TARGET: AcXbh30A-CD (Acetivibrio clariflavus, UniProt G8LU16)
Construct: GH30 catalytic domain only, secretion leader and C-terminal type I dockerin removed, C-terminal His-tag, pET28 expression, ca. 50 kDa, apparent monomer
Sequence (G8LU16 29-455 limits assumed): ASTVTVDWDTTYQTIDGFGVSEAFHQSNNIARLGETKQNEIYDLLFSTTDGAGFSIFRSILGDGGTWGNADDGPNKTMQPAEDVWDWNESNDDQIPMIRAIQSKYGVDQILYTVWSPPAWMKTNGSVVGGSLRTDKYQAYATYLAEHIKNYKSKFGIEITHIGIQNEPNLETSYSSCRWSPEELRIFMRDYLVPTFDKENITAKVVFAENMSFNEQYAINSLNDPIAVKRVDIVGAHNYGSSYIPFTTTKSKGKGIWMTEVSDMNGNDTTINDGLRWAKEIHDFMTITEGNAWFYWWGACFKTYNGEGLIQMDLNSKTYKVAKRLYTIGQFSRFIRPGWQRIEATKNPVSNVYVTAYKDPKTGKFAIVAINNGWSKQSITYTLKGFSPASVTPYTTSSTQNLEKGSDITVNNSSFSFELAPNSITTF
ASSAY: pNP-X2 hydrolysis, non-linear competitive inhibition fit
EXPERIMENTAL SETUP: competitive product inhibition; substrate pNP-X2; 30 mM sodium acetate pH 4.0, 0.02 mg/ml BSA, 65 C; read-out: AcXbh30A pNP-X2 kinetic values^a ^, ^b / 116.4 ± 3.23 μM
PROPERTY NAME: pKi
// pKi here means minus log10 of the molar concentration (mol/L)

**Q:** Field request: pKi | item: OC1OC[C@@H](O[C@@H]2OC[C@@H](O)[C@H](O)[C@H]2O)[C@H](O)[C@H]1O (stereo partly shown)
**A:** 2.62
